sequences and their reported protein stability index
Test system: Saccharomyces cerevisiae
Assay: protein stability index of tFT-peptide fusion (C-terminal peptide) (PSI (0-1 scale)); higher = more stable (slower turnover)
Settings: genetic background: wild type; temperature: 30 C
Output spec: single numeric token, no unit.

Residues: PCYSDAPPRFMC [YER152W-A C-terminal 12 aa]
Reported Value: 0.287

Residues: QPLLPCFFRRAV [YER147C-A C-terminal 12 aa]
Reported Value: 0.431

Residues: ASFENETVKANV [RFC3 C-terminal 12 aa]
Reported Value: 0.704

Residues: EEMEEFKKLVMG [MIC19 C-terminal 12 aa]
Reported Value: 0.692

Query: Query (sequence): ENAEKQRTLKKN [RIA1 C-terminal 12 aa] ; field requested: protein stability index
Result: 0.71

Query: Query (sequence): VRKGQEKSKKHS [SEI1 C-terminal 12 aa] ; field requested: protein stability index
Result: 0.737

Query: Query (sequence): YDYNSKNSRGFY [DEF1 C-terminal 12 aa] ; field requested: protein stability index
Result: 0.676

Query: Query (sequence): SFSDLTLHAIEY [BER1 C-terminal 12 aa] ; field requested: protein stability index
Result: 0.69

Query: Query (sequence): IEQSFGVIEYFP [SCW11 C-terminal 12 aa] ; field requested: protein stability index
Result: 0.71

Query: Query (sequence): PPVPEVPQEYTQ [TCB3 C-terminal 12 aa] ; field requested: protein stability index
Result: 0.709

Query: Query (sequence): VNFDIEEEQEGQ [JJJ3 C-terminal 12 aa] ; field requested: protein stability index
Result: 0.791

Query: Query (sequence): HCQPQEILVLRQ [PEX10 C-terminal 12 aa] ; field requested: protein stability index
Result: 0.7
